- Subject Of Test: mGluR5 receptor (Sus scrofa, UniProt I3LUI7)
- Construct: 450 μg of protein from brain homogenate with 5 nM ^3[H]-MPEP; from tissue; host or cells: pig brain halves without medulla, cerebellum and pons
- Sequence (I3LUI7 19-1212): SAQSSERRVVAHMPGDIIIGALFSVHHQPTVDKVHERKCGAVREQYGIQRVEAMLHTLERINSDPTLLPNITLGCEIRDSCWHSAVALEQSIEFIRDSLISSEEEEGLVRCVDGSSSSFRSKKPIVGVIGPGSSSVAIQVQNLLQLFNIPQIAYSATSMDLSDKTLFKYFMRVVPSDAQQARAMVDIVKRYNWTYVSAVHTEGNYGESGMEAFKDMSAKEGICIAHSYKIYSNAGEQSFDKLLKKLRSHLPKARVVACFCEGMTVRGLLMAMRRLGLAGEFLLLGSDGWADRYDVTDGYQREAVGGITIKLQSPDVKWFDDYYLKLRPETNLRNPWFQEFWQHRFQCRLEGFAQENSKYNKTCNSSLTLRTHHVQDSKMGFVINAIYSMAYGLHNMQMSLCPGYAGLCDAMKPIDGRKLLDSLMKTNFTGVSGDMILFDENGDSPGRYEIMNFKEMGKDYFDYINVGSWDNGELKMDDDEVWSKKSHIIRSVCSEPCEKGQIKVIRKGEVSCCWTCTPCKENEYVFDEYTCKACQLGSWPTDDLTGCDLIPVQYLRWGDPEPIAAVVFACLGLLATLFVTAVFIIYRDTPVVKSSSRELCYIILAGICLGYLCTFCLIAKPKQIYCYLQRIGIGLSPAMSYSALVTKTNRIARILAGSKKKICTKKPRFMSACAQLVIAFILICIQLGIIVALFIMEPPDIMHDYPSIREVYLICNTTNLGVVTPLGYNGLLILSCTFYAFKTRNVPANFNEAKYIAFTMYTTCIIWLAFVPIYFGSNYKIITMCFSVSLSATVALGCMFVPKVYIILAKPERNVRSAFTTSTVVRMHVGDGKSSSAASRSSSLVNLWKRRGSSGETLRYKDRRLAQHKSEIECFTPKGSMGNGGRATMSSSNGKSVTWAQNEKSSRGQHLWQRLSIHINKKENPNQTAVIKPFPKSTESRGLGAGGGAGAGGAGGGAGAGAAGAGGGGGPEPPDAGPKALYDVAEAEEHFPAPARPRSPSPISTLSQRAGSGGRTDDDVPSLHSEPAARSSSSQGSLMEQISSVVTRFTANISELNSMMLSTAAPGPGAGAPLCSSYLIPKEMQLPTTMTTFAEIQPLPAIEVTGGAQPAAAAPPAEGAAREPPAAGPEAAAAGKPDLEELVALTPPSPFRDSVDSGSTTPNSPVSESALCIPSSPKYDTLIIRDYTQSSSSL
- Test Details: [3H]-MPEP mGluR5 receptor binding assay (pig brain homogenate)
- Protocol Conditions: 10 μM compound, 5 nM [3H]-MPEP, read-out: % Inhibition of mGluR5 Receptor (pig) [^3H]-MPEP Bond at 10 μM
Measure: inhibition at 10 µM (%)

Below: 5 molecules and their reported inhibition at 10 µM.
{"Molecule": "O=C(c1ccccc1)N(Cc1cc(-c2ccc3ncnc(NC4CC4)c3c2)ccn1)C1CC1 [Example 813]", "inhibition at 10 µM [%]": 73}
{"Molecule": "O=C(c1ccccc1C(F)(F)F)N(Cc1cccc(-c2cc(F)c3ncnc(NC4CC4)c3c2)c1)C1CC1 [Example 789]", "inhibition at 10 µM [%]": 84}
{"Molecule": "CCCN(Cc1cccc(-c2ccc3ncnc(Nc4ccccc4)c3c2)c1)C(=O)c1cnccn1 [Example 104]", "inhibition at 10 µM [%]": 48}
{"Molecule": "N#CCNCc1cccc(-c2ccc3ncnc(NC4CC4)c3c2)c1 [Example 320]", "inhibition at 10 µM [%]": 72}
{"Molecule": "Cc1nc(NC2CC2)c2cc(-c3cccc(CN(C(=O)c4ccc(C(F)(F)F)cc4F)C4CC4)c3)ccc2n1 [Example 454]", "inhibition at 10 µM [%]": 34}

1: O=C(c1ccccc1C(F)(F)F)N(Cc1cccc(-c2ccc3ncnc(N4CCCC4)c3c2)c1)C1CC1 [Example 135]
2: N#CCC(=O)N(Cc1cc(F)cc(-c2ccc3ncnc(NC4CC4)c3c2)c1)C1CC1 [Example 902]
Ask: Could you tell me which of 1 and 2 has the lower inhibition at 10 µM reading? Return value: the label identifying the chosen record.
Reply: 1
(1: 32%, 2: 92%)
